Hello, the source for this data is paper PMC8320615, in case you need it.

test system: HepaRG cells; experiment: MTT cytotoxicity on HepaRG cells in HK-2/HepaRG co-culture; assay type: cell-based; conditions: read-out: Hepatic cytotoxicity IC50 HepaRG 48 h; co-culture, 48 h, MTT
Response field label takes 1.0 when IC50 is strictly below 200 µM and 0.0 in all other cases.

molecule | label.class
CC(=O)OC[C@H]1O[C@@H](Oc2cc(O)cc3cc4oc(C)cc(=O)c4c(O)c23)[C@H](O)[C@@H](O)[C@@H]1O | 0.0
COc1cc2c(c(O)c1OC)C(=O)c1c(cc(C)c(O)c1OC)C2=O | 1.0
Cc1cc2c(c(O)c1O)C(=O)c1c(O)cc(O)cc1C2=O | 0.0
COc1c(O[C@@H]2O[C@H](CO)[C@@H](O)[C@H](O)[C@H]2O)c(C)cc2c1C(=O)c1c(O)cccc1C2=O [No. 16, Obtusifoline-2-O-β-D-glucoside] | 1.0
COc1ccc2c(c1OC)C(=O)c1c(cc(C)c(O)c1OC)C2=O | 1.0

Q: Take the molecule COc1cc2c(c(O)c1OC)C(=O)c1c(cc(C)c(O[C@@H]3O[C@H](CO)[C@@H](O)[C@H](O)[C@H]3O)c1OC)C2=O and say whether its IC50 is less than 200 µM.
Ans: 1.0

Q: What would you report for CC(=O)c1c(C)cc2cc(O)cc(O[C@@H]3O[C@H](CO)[C@@H](O)[C@H](O)[C@H]3O)c2c1O [No. 25, 6-Hydroxymusizin-8-O-β-D-glucopyranoside] ?
Ans: 0.0

Q: What would you report for O=C(O)c1cc(O)c2c(c1)C(=O)c1cccc(O[C@@H]3O[C@H](CO)[C@@H](O)[C@H](O)[C@H]3O)c1C2=O [No. 15, Rhein-8-O-β-D-glucoside] ?
Ans: 0.0
